SYSTEM_TESTED: Phosphorylase b kinase gamma catalytic chain, skeletal muscle/heart isoform (Homo sapiens);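 also: values are averaged percent inhibition of PHKG1 kinase activity, from the GSK PKIS inhibitor-set screen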
TEST_PARAMETERS: at 0.1 µM
Examples of compounds with documented inhibition follow.
ASSAY_ENDPOINT: inhibition (%)

TEST_SMILES | SYSTEM_TESTED | UNIT_SYMBOL | NUMERIC_RESULT
c1ccc(-c2n[nH]cc2-c2ccnc(-c3ccc(OCCN4CCOCC4)cc3)c2)nc1 | Phosphorylase b kinase gamma catalytic chain, skeletal muscle/heart isoform (Homo sapiens) | % | 3.14
FC(F)(F)c1cccc(Nc2nccc(-c3cnn4nc(-c5ccccc5)ccc34)n2)c1 | Phosphorylase b kinase gamma catalytic chain, skeletal muscle/heart isoform (Homo sapiens) | % | 3.06
NC(=O)c1cc(-c2ccncc2)cc(-c2ccccc2)c1N | Phosphorylase b kinase gamma catalytic chain, skeletal muscle/heart isoform (Homo sapiens) | % | 5.69
CCN(CC)Cc1ccc(Nc2nccc(-c3cnn4ncccc34)n2)cc1 | Phosphorylase b kinase gamma catalytic chain, skeletal muscle/heart isoform (Homo sapiens) | % | 6.04
Fc1ccc(-c2c(-c3ccncc3)nc3n2CCS3)cc1 | Phosphorylase b kinase gamma catalytic chain, skeletal muscle/heart isoform (Homo sapiens) | % | 4.14
CCc1ccc(Oc2nccc(-c3c(-c4ccc(F)cc4)ncn3C3CCNCC3)n2)cc1 | Phosphorylase b kinase gamma catalytic chain, skeletal muscle/heart isoform (Homo sapiens) | % | 1.39
CN(C)CCOc1ccc(-c2cc(-c3ccc4c(c3)CCC4=NO)c(-c3ccncc3)o2)cc1 | Phosphorylase b kinase gamma catalytic chain, skeletal muscle/heart isoform (Homo sapiens) | % | 1.83
COc1ccc2cc(-c3c(-c4ccncc4)nc(-c4ccc(S(C)(=O)=O)cc4C)n3C)ccc2c1 | Phosphorylase b kinase gamma catalytic chain, skeletal muscle/heart isoform (Homo sapiens) | % | 5.34
NC(=O)c1ccc(Oc2nccc(-c3c(-c4ccc(F)cc4)ncn3C3CCNCC3)n2)cc1 | Phosphorylase b kinase gamma catalytic chain, skeletal muscle/heart isoform (Homo sapiens) | % | 3.06
C[C@@H](Oc1cc(-n2cnc3ccc(OC4CCN(C)CC4)cc32)sc1C(N)=O)c1ccccc1Cl | Phosphorylase b kinase gamma catalytic chain, skeletal muscle/heart isoform (Homo sapiens) | % | 2.08
Cc1ccc(NC(=O)c2ccoc2)cc1-c1ccc(C(=O)NCC2CC2)cc1 | Phosphorylase b kinase gamma catalytic chain, skeletal muscle/heart isoform (Homo sapiens) | % | 3.88
COc1cc2ncn(-c3cc(OCc4cccs4)c(C(N)=O)s3)c2cc1OC | Phosphorylase b kinase gamma catalytic chain, skeletal muscle/heart isoform (Homo sapiens) | % | 3.47
CCc1cccc(CC)c1/C=C/c1cncc(C(=O)NC)c1 | Phosphorylase b kinase gamma catalytic chain, skeletal muscle/heart isoform (Homo sapiens) | % | 0.98
C#Cc1cccc(Nc2ncnc3ccc(OCCCCNCCS(C)(=O)=O)cc23)c1 | Phosphorylase b kinase gamma catalytic chain, skeletal muscle/heart isoform (Homo sapiens) | % | 5.74
Cc1nnc(-c2ccc(C)c(-c3ccc(C(=O)NCc4ccc(Cl)cc4)cc3)c2)o1 | Phosphorylase b kinase gamma catalytic chain, skeletal muscle/heart isoform (Homo sapiens) | % | 4.66
Fc1ccc(-c2ncn(CCCN3CCOCC3)c2-c2ccncc2)cc1 | Phosphorylase b kinase gamma catalytic chain, skeletal muscle/heart isoform (Homo sapiens) | % | 1.86
O=C(Nc1n[nH]c2nc(-c3ccco3)ccc12)C1CC1 | Phosphorylase b kinase gamma catalytic chain, skeletal muscle/heart isoform (Homo sapiens) | % | 1.05
NS(=O)(=O)c1ccc(N/N=C2\C(=O)Nc3ccc(C(=O)NCCCn4ccnc4)cc32)cc1 | Phosphorylase b kinase gamma catalytic chain, skeletal muscle/heart isoform (Homo sapiens) | % | 9.94
CCc1nccc2c1nc(-c1nonc1N)n2CC | Phosphorylase b kinase gamma catalytic chain, skeletal muscle/heart isoform (Homo sapiens) | % | 3.65
Cc1ccc(C(=O)NC2CCC2)cc1-c1ccc(C(=O)NCC2CC2)cc1 | Phosphorylase b kinase gamma catalytic chain, skeletal muscle/heart isoform (Homo sapiens) | % | 2.32
COC(=O)Nc1nc2ccc(Sc3ccc(NC(=O)Nc4cc(C(F)(F)F)ccc4F)cc3)cc2[nH]1 | Phosphorylase b kinase gamma catalytic chain, skeletal muscle/heart isoform (Homo sapiens) | % | 8.5

Where do the numbers come from? From ChEMBL document CHEMBL1961873.
